Source listed as paper PMC8906008.

biological target: SARS-CoV-2 nsp5 (nsp4-5-6 WT) (Severe acute respiratory syndrome coronavirus 2, UniProt P0DTD1); assay: cell-based; conditions: HEK-293T, read-out: Secondary screen nsp5-WT RLU (%)
Label 1 when inhibition at 10 µM is at or above 20%; otherwise label 0.

Q) Confirm if inhibition at 10 µM reported for the compound C1=C/COCc2cc(ccc2OCCN2CCCC2)Nc2nccc(n2)-c2cccc(c2)COC/1 [Compound #9, Pacritinib (SB1518)] is 20% or above.
A) 0

Q) Confirm if inhibition at 10 µM reported for the compound CC(C)(C(=O)c1cccnc1)c1cccnc1 [compound 44, Metyrapone] is 20% or above.
A) 0

Q) Confirm if inhibition at 10 µM reported for the compound CC[C@@H]1C(=O)N(C)c2cnc(Nc3ccc(C(=O)N[C@H]4CC[C@H](N5CCN(CC6CC6)CC5)CC4)cc3OC)nc2N1C(C)C [compound 4, Volasertib (BI6727)] is 20% or above.
A) 1

Q) Confirm if inhibition at 10 µM reported for the compound Cc1sc2c(c1C)C(c1ccc(Cl)cc1)=N[C@@H](CC(=O)Nc1ccc(O)cc1)c1nnc(C)n1-2 [compound 7, OTX015] is 20% or above.
A) 1

Q) Confirm if inhibition at 10 µM reported for the compound CNCc1ccc(C)c(NC(=O)c2ccc(Nc3nc(-c4ccccc4)c4ccccc4n3)cc2)c1 [compound 16, BMS-833923 (XL139)] is 20% or above.
A) 0

Q) Confirm if inhibition at 10 µM reported for the compound COCCOc1ccc2c(c1)ncn2-c1ccc2cccc(N3CCC(N)CC3)c2n1 [compound 12, CP 673451] is 20% or above.
A) 0

Q) Confirm if inhibition at 10 µM reported for the compound Cc1nc(Nc2ncc(C(=O)Nc3c(C)cccc3Cl)s2)cc(N2CCN(CCO)CC2)n1 [compound 21, Dasatinib (BMS-354825)] is 20% or above.
A) 0
